biological target: recombinant soluble homotrimeric HA of A/swine/Ontario/01911-2/99 (H4N6) (Influenza A virus A/Swine/Ontario/01911-2/99 (H4N6)); experiment: HA microarray, BCC supernatant; settings: remark: other sources report otherwise
ASSAY METRIC: Trimeric HA Binding: RLU (RLU)
Write the number in RLU without appending the unit.

Request: Fill in the blank: the reported Trimeric HA Binding: RLU of TCN-542 (5079_A16) (antibody, V domains shown) VH: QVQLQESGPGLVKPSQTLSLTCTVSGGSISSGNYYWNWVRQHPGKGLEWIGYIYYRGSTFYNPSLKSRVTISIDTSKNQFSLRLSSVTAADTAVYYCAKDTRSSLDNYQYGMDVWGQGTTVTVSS VL: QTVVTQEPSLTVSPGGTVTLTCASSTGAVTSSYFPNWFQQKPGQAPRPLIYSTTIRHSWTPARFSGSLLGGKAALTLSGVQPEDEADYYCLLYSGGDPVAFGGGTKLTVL is ____.
Result: 350

Request: Fill in the blank: the reported Trimeric HA Binding: RLU of TCN-547 (5092_F11) (antibody, V domains shown) VH: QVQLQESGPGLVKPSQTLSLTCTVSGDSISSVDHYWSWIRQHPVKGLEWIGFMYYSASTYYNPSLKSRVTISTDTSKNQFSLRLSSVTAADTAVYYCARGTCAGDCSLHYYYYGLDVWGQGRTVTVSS VL: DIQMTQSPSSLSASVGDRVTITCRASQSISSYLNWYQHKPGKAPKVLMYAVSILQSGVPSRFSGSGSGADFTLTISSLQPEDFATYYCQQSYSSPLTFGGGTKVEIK is ____.
Result: 252

Request: Fill in the blank: the reported Trimeric HA Binding: RLU of TCN-554 (5277_M05) (antibody, V domains shown) VH: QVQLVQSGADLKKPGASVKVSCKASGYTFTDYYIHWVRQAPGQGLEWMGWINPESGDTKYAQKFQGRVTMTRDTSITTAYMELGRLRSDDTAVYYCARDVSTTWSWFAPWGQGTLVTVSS VL: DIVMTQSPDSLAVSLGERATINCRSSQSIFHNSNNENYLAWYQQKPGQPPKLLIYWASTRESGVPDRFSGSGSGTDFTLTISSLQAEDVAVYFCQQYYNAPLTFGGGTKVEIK is ____.
Result: 78

Request: Fill in the blank: the reported Trimeric HA Binding: RLU of TCN-539 (5056_A08) (antibody, V domains shown) VH: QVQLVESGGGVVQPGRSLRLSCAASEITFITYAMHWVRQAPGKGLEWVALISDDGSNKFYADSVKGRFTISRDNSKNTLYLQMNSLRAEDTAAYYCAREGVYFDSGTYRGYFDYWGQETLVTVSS VL: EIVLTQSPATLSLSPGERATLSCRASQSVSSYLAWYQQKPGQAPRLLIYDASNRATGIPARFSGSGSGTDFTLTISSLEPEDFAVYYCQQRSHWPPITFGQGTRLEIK is ____.
Result: 1580

Request: Fill in the blank: the reported Trimeric HA Binding: RLU of TCN-528 (5087_P17) (antibody, V domains shown) VH: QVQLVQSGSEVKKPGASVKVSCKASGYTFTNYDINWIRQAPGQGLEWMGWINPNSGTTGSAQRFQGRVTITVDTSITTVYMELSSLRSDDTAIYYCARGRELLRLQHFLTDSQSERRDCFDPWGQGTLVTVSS VL: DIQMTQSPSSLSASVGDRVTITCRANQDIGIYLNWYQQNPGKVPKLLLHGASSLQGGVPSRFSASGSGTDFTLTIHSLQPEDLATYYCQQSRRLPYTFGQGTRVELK is ____.
Result: 47500
